Assay details: clinical
Measurement context: male, human, in vivo, po, AUC0-t, GM (CV %)
Reported metric: AUC(0-t) (µg·h/mL)

molecule="CCCC(CCC)C(=O)O [VPA, valproic acid]" number=517

----------
Assay details: clinical
Measurement context: male, human, in vivo, po
Reported metric: Tmax (h)

sample_smiles=CCCC(CCC)C(=O)O number=4

----------
Assay details: clinical
Measurement context: male, human, in vivo, po, AUC0-t, Mean (SD)
Reported metric: AUC(0-t) (µg·h/mL)

sample_smiles=CCCC(CCC)C(=O)O reported_metric=AUC(0-t) display_unit=µg·h/mL number=522

----------
Assay details: clinical
Measurement context: male, human, in vivo, po, AUC0-tau, Mean (SD)
Reported metric: AUC (µg·h/mL)

compound="CCCC(CCC)C(=O)O [VPA, valproic acid]" reported_metric=AUC number=522
